experimental-protocol: Solubility of the agrochemically active ingredient in the aqueous solution of water-soluble compound (B)
Type: physicochemical
reported-conditions: aqueous sodium hydrogencarbonate/sodium carbonate, 1.6 parts sodium hydrogencarbonate and 0.18 part sodium carbonate in 46.77 parts water (Example 1)
readout-kind: solubility (mg/mL)

molecule="COc1cc(OC)nc(Oc2cccc(Oc3nc(OC)cc(OC)n3)c2C(=O)[O-])n1.[Na+] [bispyribac-sodium]" value_observed=14

###

experimental-protocol: Solubility of the agrochemically active ingredient in the aqueous solution of water-soluble compound (B)
Format: physicochemical
reported-conditions: aqueous acetic acid/sodium acetate, 0.23 part acetic acid and 2.8 parts sodium acetate in 73.77 parts water (Example 5)
readout-kind: solubility (mg/mL)

compound="COc1nn(C(=O)NS(=O)(=O)c2ccccc2OC(F)(F)F)c(=O)n1C [flucarbazone-sodium]" readout_kind=solubility value_observed=11

###

experimental-protocol: Solubility of the agrochemically active ingredient in the aqueous solution of water-soluble compound (B)
Format: physicochemical
reported-conditions: aqueous ammonium hydrogencarbonate, 3.1 parts ammonium hydrogencarbonate in 75.4 parts water (Example 4)
readout-kind: solubility (µg/mL)

molecule="COc1cc(OC)nc(Oc2cccc(Oc3nc(OC)cc(OC)n3)c2C(=O)[O-])n1.[Na+] [bispyribac-sodium]" unit_tag=µg/mL value_observed=9000
